Data provenance: the MegaScale stability set (Tsuboyama et al. 2023)

B1: HEEH_KT_rd6_0007 (parent)
chain: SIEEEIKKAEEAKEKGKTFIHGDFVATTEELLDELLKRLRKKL

# Variants of: B1
# METHOD_NOTES: folding stability dG (cDNA display proteolysis); higher = more stable
# CONDITION_CONTEXT: PBS, room temperature
Cut-off 1 kcal/mol on folding stability dG, inclusive. At or above means 1.0; below means 0.0.

These recorded examples may help you get a feel for the data.
| MUTATION_KEY | GROUP_LABEL |
| --- | --- |
| D33L | 1.0 |
| K37R | 1.0 |
| K13I | 0.0 |
| K7S | 0.0 |

Check the entry `K13V` : does folding stability dG equal or exceed 1 kcal/mol? 0.0

Check the entry `V25C` : does folding stability dG equal or exceed 1 kcal/mol? 1.0
